Where these numbers come from: PubChem BioAssay (NCATS)

# EXPERIMENT_NOTES: NFAT Signaling Pathway (AID 444);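 also: carbachol stimulus at about its EC50 of 1 µM final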
# CONDITION_PARAMETERS: Jurkat NFAT-bla M1, carbachol, beta-lactamase ratio, 5 h; at 7.69 µM (top of the series) unless noted
# Procedure: NCGC Assay Overview: The nuclear factor of activated T cells (NFAT) family of transcription factors has been found primarily in most immune system cells and some other non-immune cells. NFAT plays the immunomodulatory role, primarily in T-cell activation and differentiation. […] NCGC Assay Protocol Summary: The cells were prepared in RPMI 1640 medium containing 0.1% dialyzed FBS and 25 mM HEPES at 1.6 x 10^6cell/ml. […] The %Activity was determined from the ratio of 460nm/530nm. […]
Results filed as inconclusive are left out. Calls of active or inactive are those of the source. Calls follow the shape of the dose curve; as a rule, active = well fitted curve in either direction with a large enough effect (not every such curve was filed as active); inconclusive = small, poorly fitted or top-dose-only effect, or another doubt; inactive = flat fitted curve, though single readings scatter.
Your reply should match one of these outcome classes. Y (active), N (inactive)

Status in this test for COc1ccccc1CNc1ncnc2ccc(-c3ccccc3C#N)cc12 ?
N

Dear all, I need the recorded test outcome for COc1ncc2nc(-c3cn(C)c4ccccc34)c(=O)n(Cc3ccc(F)cc3)c2n1 , thank you.
N

Could you check what this test reported for COc1ccc(C(=O)N2CCC3(CCN(C(=O)Nc4cccc(F)c4)CC3)CC2)cc1 ?
N

Name the outcome recorded for CCN[C@@H]1C[C@H](C)S(=O)(=O)c2sc(S(N)(=O)=O)cc21 in the assay.
N

Look up the recorded call for COCCNc1nc(-c2ccccc2C)nc2ccccc12 in this test.
N

Per the assay record, what outcome was assigned to CN(C)C(=O)c1ccc(-c2cncnc2NCc2cccnc2)cc1 ?
N

Hey, what did the test say about CN1CCN(c2ncc3nc(-c4cn(C)c5ccccc45)c(=O)n(C)c3n2)CC1 ?
N

Please let me know the test result on file for COc1ccccc1-c1nc(N(C)Cc2ccco2)c2ccccc2n1 .
N

Recorded test call requested for COc1ccccc1CCn1c(=O)c(-c2ccc(F)c(F)c2)nc2cncnc21
N

Kindly provide the recorded test outcome for the following compound: COc1ccc(C(=O)N2CCC3(CC2)CN(c2ncccn2)C3)cc1
N

Please let me know the test result on file for Cc1noc(C)c1-c1nccc(NCc2ccccc2)n1 .
N

Test call for this compound, please: COCCNc1ncnc2ccc(-c3ccc(N(C)C)cc3)cc12
N

Hi, do you know how O=C(Oc1ccccc1)N1CCC2(CCCN(c3ccncc3)C2)CC1 came out in this test?
Y

What classification did O=C(c1cnccn1)N1CCC2(CC1)CCN(c1ccccc1)CC2 end up with in this test?
N

# outcome recorded in this test, key = O=c1c(-c2cccc(F)c2)nc2cncnc2n1Cc1ccccc1
N

Dear all, I need the recorded test outcome for COCCNc1nc(-c2cccc(NS(C)(=O)=O)c2)nc2ccccc12 , thank you.
N

Recorded test outcome, item COc1ccc(Oc2ncc3ncc(=O)n(Cc4ccc(F)cc4)c3n2)cc1
N

Could you kindly confirm the outcome this assay logged for CCNc1ncc2nc(CCc3ccccc3)c(=O)n(Cc3ccc(F)cc3)c2n1 ?
N

Assay result, entry COc1cccc(Nc2ncc3nc(C)c(=O)n(C[C@H]4CCCO4)c3n2)c1 — outcome?
N

For CC(=O)NCCNc1nc(-c2ccccc2CN(C)C)nc2ccccc12 , which call appears in the assay record?
N

What did this assay record as the result for Cc1cnc(CNc2cc(-c3c(C)noc3C)ncn2)cn1 ?
N

How was COc1ccccc1-c1cc(N(C)Cc2ccco2)ncn1 classified in this test?
N

Hi team, can someone confirm the assay call for COc1cccc(Cn2c(=O)c(C)nc3cnc(Oc4ccccc4)nc32)c1 ?
N

Test call for this compound, please: Cc1noc(C)c1-c1nccc(NCc2cccs2)n1
N

Lab log entry: O=c1cnc2cnc(N3CCOCC3)nc2n1Cc1ccc(F)cc1 — outcome as called in the assay?
N

So what was the verdict on COc1cccc(-c2nccc(NCc3cccs3)n2)c1 in this test?
N

Per the records of this test, what outcome belongs to O=C(c1cccc(F)c1)N1CCC[C@@]2(CCN(Cc3ccccc3)C2)C1 ?
N

Assay outcome for CN(Cc1ccco1)c1nc(-c2ccoc2)nc2ccccc12 : what was it?
N

Called result for COc1ccc(Oc2ncc3nc(-c4ccccc4)c(=O)n(Cc4cccs4)c3n2)cc1
N

I would be grateful if you could indicate the recorded call for N#CCCn1c(=O)c(-c2ccc(Cl)cc2)nc2cnc(Oc3cccc(Cl)c3)nc21 .
N

Outcome? c1ccc(CNc2ncncc2-c2ccoc2)cc1
N

# lookup: test call for O=c1c(-c2cccs2)nc2cnc(Nc3ccccc3)nc2n1C[C@H]1CCCO1
N

What did this assay record as the result for COc1cccc(-c2nc(NCc3cccs3)c3ccccc3n2)c1 ?
N

Record request — test call for Cc1ccccc1-c1ccc2ncnc(N(C)C)c2c1
N

Just curious, what result did COc1ccc(C(=O)N2CCC3(CCN(Cc4ccncc4)CC3)CC2)cc1 get here?
N

Record request — test call for COC(=O)N1CCC2(CC1)CN(C(=O)Nc1ccc(OC)cc1)C2
N

Status in this test for COCCn1c(=O)c(-c2ccccc2)nc2cnc(Nc3cccc(OC)c3)nc21 ?
N

Recorded test outcome, item COc1ccc(-c2nc3cnc(N4CCOCC4)nc3n(Cc3cccc(OC)c3)c2=O)cc1
N

Hey, what did the test say about Cc1noc(C)c1-c1nccc(NC2CC2)n1 ?
N

Test call for this compound, please: COc1ccc(NC(=O)N2CC[C@@]3(CCCN(S(C)(=O)=O)C3)C2)cc1
N

Given CN(Cc1ccco1)c1ncncc1-c1cccc(NS(C)(=O)=O)c1 , state the outcome it received in this test.
N

Hi, do you know how CCNc1ncc2nc(-c3ccc(Cl)cc3)c(=O)n(C)c2n1 came out in this test?
N

How was COc1ccc2[nH]cc(CCNc3ncncc3-c3ccc(C(=O)N(C)C)cc3)c2c1 classified in this test?
N

Lab log entry: COCC(=O)N1CCC2(CCN(Cc3cc(C(F)(F)F)cc(C(F)(F)F)c3)CC2)CC1 — outcome as called in the assay?
N

Please let me know the test result on file for N#Cc1cccc(-c2nccc(NCc3cccnc3)n2)c1 .
N
